Items are presented alongside their recorded 5-HT7 ag [%].
- target_system: 5-HT7 serotoninergic receptors (Homo sapiens)
- Sequence (P34969 whole entry): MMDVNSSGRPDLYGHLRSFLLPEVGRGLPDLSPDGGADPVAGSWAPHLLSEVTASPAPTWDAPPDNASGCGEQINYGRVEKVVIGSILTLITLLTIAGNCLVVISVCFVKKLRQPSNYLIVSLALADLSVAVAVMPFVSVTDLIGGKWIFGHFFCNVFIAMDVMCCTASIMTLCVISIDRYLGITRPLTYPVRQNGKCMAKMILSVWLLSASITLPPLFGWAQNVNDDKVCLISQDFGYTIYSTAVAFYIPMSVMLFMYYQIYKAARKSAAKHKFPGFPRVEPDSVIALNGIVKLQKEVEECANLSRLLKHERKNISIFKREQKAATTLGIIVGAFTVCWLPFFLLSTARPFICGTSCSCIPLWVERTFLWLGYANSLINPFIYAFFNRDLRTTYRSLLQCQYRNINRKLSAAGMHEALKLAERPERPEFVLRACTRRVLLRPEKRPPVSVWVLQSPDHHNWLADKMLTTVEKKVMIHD
- experimental_details: Cellular functional assay, 5-HT7 serotoninergic receptors
- Type: cell-based
- setup_conditions: agonist mode; percent of control specific agonist response

{"molecule": "Cc1cc(S(=O)(=O)N[C@H]2CCN(CCCc3noc4cc(F)ccc34)C2)c(C)s1 [Compound 223]", "units_of_measure": "%", "5-HT7 ag [%]": 0}
{"molecule": "O=S(=O)(NCC1CN(CCOc2cccc3c2OCCO3)C1)c1ccc(Cl)c(Cl)c1 [Compound 183]", "units_of_measure": "%", "5-HT7 ag [%]": 2}
{"molecule": "O=S(=O)(N[C@H]1CCN(CCCc2noc3cc(F)ccc23)C1)c1csc2ccccc12 [Compound 225]", "units_of_measure": "%", "5-HT7 ag [%]": 0}
{"molecule": "Cc1c(S(=O)(=O)NCC2CN(CCCc3noc4cc(F)ccc34)C2)sc2ccc(F)cc12 [Compound 130]", "units_of_measure": "%", "5-HT7 ag [%]": 0}
{"molecule": "O=S(=O)(NC1CCN(CCCc2noc3cc(F)ccc23)C1)c1cc2ccc(F)cc2s1 (centres unmarked) [Compound 234]", "units_of_measure": "%", "5-HT7 ag [%]": 0}
{"molecule": "O=S(=O)(N[C@@H]1CCN(CCCc2noc3cc(F)ccc23)C1)c1ccc2ccccc2c1 [Compound 206]", "units_of_measure": "%", "5-HT7 ag [%]": "−1"}
{"molecule": "O=S(=O)(N[C@@H]1CCN(CCCc2noc3cc(F)ccc23)C1)c1ccc2cc(Cl)ccc2c1 [Compound 200]", "units_of_measure": "%", "5-HT7 ag [%]": "−1"}
{"molecule": "O=S(=O)(NCC1CCN(CCCc2noc3cc(F)ccc23)C1)c1cccc2ccccc12 (centres unmarked) [Compound 239]", "units_of_measure": "%", "5-HT7 ag [%]": 1}

---

- target_system: dopaminergic receptors D2 (Homo sapiens)
- experimental_details: Radioligand binding assay, dopaminergic D2 receptors
- setup_conditions: binding assay, test compound 1×10^−6 M
Recorded inhibition at 1 µM, one value per entry.

{"molecule": "O=S(=O)(NC1CCN(CCCc2c[nH]c3ccc(F)cc23)C1)c1ccc(Cl)cc1 (centres unmarked)", "inhibition at 1 µM [%]": 93}
{"molecule": "O=S(=O)(N[C@@H]1CCN(CCCc2noc3cc(F)ccc23)C1)c1ccc2cc(Cl)ccc2c1", "inhibition at 1 µM [%]": 100}
{"molecule": "O=S(=O)(NCC1CCN(CCCc2noc3cc(F)ccc23)C1)c1ccc2ccccc2c1 (centres unmarked)", "inhibition at 1 µM [%]": 95}
{"molecule": "O=S(=O)(NC1CCN(CCCc2c[nH]c3ccc(Cl)cc23)C1)c1ccc(Cl)cc1 (centres unmarked)", "inhibition at 1 µM [%]": 45}
{"molecule": "O=S(=O)(NCC1CCN(CCCc2noc3cc(F)ccc23)C1)c1ccc(Cl)cc1 (centres unmarked)", "inhibition at 1 µM [%]": 55}
{"molecule": "Cc1cc(S(=O)(=O)N[C@H]2CCN(CCCc3noc4cc(F)ccc34)C2)c(C)s1", "inhibition at 1 µM [%]": 89}
{"molecule": "Cc1cccc(S(=O)(=O)NCC2CN(CCCc3noc4cc(F)ccc34)C2)c1", "inhibition at 1 µM [%]": 58}
{"molecule": "O=S(=O)(NCC1CCN(CCOc2cccc3c2OCCO3)C1)c1cccc(F)c1 (centres unmarked)", "inhibition at 1 µM [%]": 52}

---

- target_system: dopaminergic receptors D2 (Homo sapiens, UniProt P14416)
- Sequence (P14416 whole entry): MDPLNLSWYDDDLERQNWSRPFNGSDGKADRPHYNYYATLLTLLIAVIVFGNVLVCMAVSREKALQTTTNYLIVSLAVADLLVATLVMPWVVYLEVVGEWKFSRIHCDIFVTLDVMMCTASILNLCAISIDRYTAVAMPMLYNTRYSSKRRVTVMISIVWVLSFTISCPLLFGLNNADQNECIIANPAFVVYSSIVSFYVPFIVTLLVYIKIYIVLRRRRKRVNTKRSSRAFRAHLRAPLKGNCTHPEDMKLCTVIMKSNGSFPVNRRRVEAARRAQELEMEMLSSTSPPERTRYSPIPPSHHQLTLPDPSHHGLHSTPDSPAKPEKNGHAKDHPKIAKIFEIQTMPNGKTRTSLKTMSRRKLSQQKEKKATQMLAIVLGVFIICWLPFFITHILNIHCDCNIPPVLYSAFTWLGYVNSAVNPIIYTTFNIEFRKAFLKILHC
- experimental_details: Radioligand binding assay, dopaminergic D2 receptors
- setup_conditions: binding assay, test compound 1×10^−6 M
- Excerpt: The specific ligand binding to the receptors is defined as the difference between the total binding and the non-specific binding determined in the presence of the excess of unlabelled ligand. The results are expressed as a percent of control specific binding ((measured specific binding/control specific binding)×100) and as a percent inhibition of control specific binding (100−((measured specific binding/control specific binding)×100)) obtained in the presence of the test compounds. […]

{"molecule": "O=S(=O)(NCC1CCN(CCOc2cccc3c2OCCO3)C1)c1ccc(Cl)cc1 (centres unmarked)", "units_of_measure": "%", "inhibition at 1 µM": -19}
{"molecule": "O=S(=O)(NCC1CN(CCOc2cccc3ccccc23)C1)c1ccc(F)c(Cl)c1", "units_of_measure": "%", "inhibition at 1 µM": 76}
{"molecule": "O=S(=O)(NCC1CCN(CCOc2cccc3c2OCCO3)C1)c1ccc2scnc2c1 (centres unmarked)", "units_of_measure": "%", "inhibition at 1 µM": 24}
{"molecule": "O=S(=O)(NCC1CCN(CCCc2noc3cc(F)ccc23)C1)c1ccc2cc(Cl)ccc2c1 (centres unmarked)", "units_of_measure": "%", "inhibition at 1 µM": 97}
{"molecule": "O=S(=O)(NC1CCN(CCCc2noc3cc(F)ccc23)C1)c1csc2ccccc12 (centres unmarked)", "units_of_measure": "%", "inhibition at 1 µM": 98}
{"molecule": "O=S(=O)(NCC1CN(CCOc2cccc3c2OCCO3)C1)c1ccc(-c2ccccc2)cc1", "units_of_measure": "%", "inhibition at 1 µM": 8}
{"molecule": "O=S(=O)(NCC1CN(CCCc2noc3cc(F)ccc23)C1)c1cc2ccccc2s1", "units_of_measure": "%", "inhibition at 1 µM": 82}
{"molecule": "O=S(=O)(NCC1CCN(CCOc2cccc3ccccc23)C1)c1cc2ccc(Cl)cc2s1 (centres unmarked)", "units_of_measure": "%", "inhibition at 1 µM": 38}

---

Catalogue of inhibition at 1 µM values
- target_system: 5-HT1A receptor (rat hippocampus) (Rattus norvegicus, UniProt P19327)
- Construct: hippocampus; from tissue; host or cells: rat hippocampus
- Sequence (P19327 whole entry): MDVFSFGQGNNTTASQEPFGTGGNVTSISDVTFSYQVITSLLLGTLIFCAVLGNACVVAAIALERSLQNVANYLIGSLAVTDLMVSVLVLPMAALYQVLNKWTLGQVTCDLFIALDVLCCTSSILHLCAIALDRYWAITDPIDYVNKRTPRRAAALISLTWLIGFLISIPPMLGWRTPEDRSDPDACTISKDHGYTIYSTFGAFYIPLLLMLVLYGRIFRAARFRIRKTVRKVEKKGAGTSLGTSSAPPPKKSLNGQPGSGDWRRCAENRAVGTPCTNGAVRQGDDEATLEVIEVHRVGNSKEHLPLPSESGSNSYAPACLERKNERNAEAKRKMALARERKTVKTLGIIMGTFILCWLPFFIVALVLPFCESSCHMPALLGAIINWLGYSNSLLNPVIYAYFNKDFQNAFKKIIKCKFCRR
- experimental_details: Radioligand binding assay, serotoninergic 5-HT1A receptors;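 further: test compound at 1 µM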
- setup_conditions: binding assay result in %, Table 5a

{"compound": "COc1ccc2cc(S(=O)(=O)NC3CCN(CCCc4noc5cc(F)ccc45)C3)ccc2c1 (centres unmarked) [Compound 227]", "units_of_measure": "%", "inhibition at 1 µM": 62}
{"compound": "O=S(=O)(NCC1CCN(CCOc2cccc3ccccc23)C1)c1ccc2cc(Cl)ccc2c1 (centres unmarked) [Compound 270]", "units_of_measure": "%", "inhibition at 1 µM": 47}
{"compound": "CC1(C)Cc2cccc(OCCN3CCC(NS(=O)(=O)c4ccc5ccccc5c4)C3)c2O1 (centres unmarked) [Compound 108]", "units_of_measure": "%", "inhibition at 1 µM": 98}
{"compound": "O=S(=O)(NCC1CCN(CCOc2cccc3ccccc23)C1)c1cccc2ccccc12 (centres unmarked) [Compound 273]", "units_of_measure": "%", "inhibition at 1 µM": 85}
{"compound": "O=S(=O)(NCC1CN(CCCc2c[nH]c3ccc(Cl)cc23)C1)c1ccc2ccccc2c1 [Compound 161]", "units_of_measure": "%", "inhibition at 1 µM": 86}
{"compound": "O=S(=O)(NCC1CCN(CCCc2noc3cc(F)ccc23)C1)c1cc2ccccc2o1 (centres unmarked) [Compound 257]", "units_of_measure": "%", "inhibition at 1 µM": 87}
{"compound": "O=S(=O)(NC1CCN(CCCc2noc3cc(F)ccc23)C1)c1ccc(Cl)cc1 (centres unmarked) [Compound 208]", "units_of_measure": "%", "inhibition at 1 µM": 9}
{"compound": "O=S(=O)(NCC1CN(CCOc2cccc3ccccc23)C1)c1cc2ccc(Cl)cc2s1 [Compound 164]", "units_of_measure": "%", "inhibition at 1 µM": 83}
{"compound": "O=S(=O)(NCC1CCN(CCOc2cccc3ccccc23)C1)c1ccc(F)c(Cl)c1 (centres unmarked) [Compound 277]", "units_of_measure": "%", "inhibition at 1 µM": 85}
{"compound": "O=S(=O)(NCC1CCN(CCOc2cccc3c2OCCO3)C1)c1cccs1 (centres unmarked) [Compound 302]", "units_of_measure": "%", "inhibition at 1 µM": 89}
{"compound": "Cc1c(S(=O)(=O)NCC2CN(CCCc3noc4cc(F)ccc34)C2)sc2ccc(Cl)cc12 [Compound 131]", "units_of_measure": "%", "inhibition at 1 µM": 87}
{"compound": "Cc1ccc2sc(S(=O)(=O)NC3CCN(CCCc4noc5cc(F)ccc45)C3)cc2c1 (centres unmarked) [Compound 226]", "units_of_measure": "%", "inhibition at 1 µM": 43}
{"compound": "Cn1ccc2cc(S(=O)(=O)NCC3CN(CCOc4cccc5c4OCCO5)C3)ccc21 [Compound 187]", "units_of_measure": "%", "inhibition at 1 µM": 78}
{"compound": "Cn1ccc2c(S(=O)(=O)NCC3CCN(CCOc4cccc5ccccc45)C3)cccc21 (centres unmarked) [Compound 275]", "units_of_measure": "%", "inhibition at 1 µM": 86}
{"compound": "O=S(=O)(NCC1CCN(CCOc2cccc3ccccc23)C1)c1cccc(O)c1 (centres unmarked) [Compound 123]", "units_of_measure": "%", "inhibition at 1 µM": 99}
{"compound": "O=S(=O)(NCC1CN(CCOc2cccc3ccccc23)C1)c1ccc(F)c(F)c1 [Compound 173]", "units_of_measure": "%", "inhibition at 1 µM": 83}
{"compound": "O=S(=O)(NC1CCN(CCCc2noc3cc(F)ccc23)CC1)c1csc2ccccc12 [Compound 330]", "units_of_measure": "%", "inhibition at 1 µM": 82}
